Data origin: patent US4900730A

assay.info: Rectal circulation: Cephalothin disappeared by absorption (Examples 10-14, 16-18)
experimental.parameters: rat, in vivo
measurement.name: Cephalothin disappeared by absorption, Osmotic pressure X 2 (percents)

// solved cases for Cephalothin disappeared by absorption, Osmotic pressure X 2 follow
{"compound": "O=C(O)CNc1ccccc1 [N--phenylglycine, N-phenylglycine]", "unit": "percents", "val": 22.3}
{"compound": "NCCCCCC(=O)O [ε-aminocaproic acid]", "unit": "percents", "val": 11.8}
{"compound": "O=C[C@H](O)[C@@H](O)[C@@H](O)[C@H](O)C(=O)O [Galactronic acid, galacturonic acid]", "unit": "percents", "val": 10.5}

a: O=P(O)(O)OC[C@H]1O[C@](O)(COP(=O)(O)O)[C@@H](O)[C@@H]1O [Fructose-1,6-diphosphoric acid]
b: O=C[C@H](O)[C@@H](O)[C@H](O)[C@H](O)C(=O)O [Glucronic acid, glucuronic acid]
c: N[C@@H](CC(C(=O)O)C(=O)O)C(=O)O [γ-carboxyglutamic acid]
d: CC(=O)OCC1=C(C(=O)O)N2C(=O)[C@@H](NC(=O)Cc3cccs3)[C@H]2SC1 [Cephalothin.Na, reference compound]
Enquiry: Falling order of Cephalothin disappeared by absorption, Osmotic pressure X 2, please. Form entry: ranked labels (order as requested).
Return: c, b, a, d
